Difference (log2), PP1 vs untreated values by entry
system: GFP-14-3-3β and its binding proteins; test: GFP-14-3-3β co-IP with LC-MS/MS label-free quantification, untreated versus PP1c-treated; parameters: species or system human; conditions: pairwise comparison PP1 vs untreated, student's t-test; 3 replicates each; LC-MS/MS label-free quantification
Observable: Difference (log2), PP1 vs untreated

molecule="SRSF10 (protein, UniProt O75494 1-262, looked up) Serine/arginine-rich splicing …: MSRYLRPPNTSLFVRNVADDTRSEDLRREFGRYGPIVDVYVPLDFYTRRPRGFAYVQFEDVRDAEDALHNLDRKWICGRQIEIQFAQGDRKTPNQMKAKEGRNVYSSSRYDDYDRYRRSRSRSYERRRSRSRSFDYNYRRSYSPRNSRPTGRPRRSRSHSDNDRFKHRNRSFSRSKSNSRSRSKSQPKKEMKAKSRSRSASHTKTRGTSKTDSKTHYKSGSRYEKESRKKEPPRSKSQSRSQSRSRSKSRSRSWTSPKSSGH" observable="Difference (log2), PP1 vs untreated" result=-2.973
molecule="PPP1R3D (protein, UniProt O95685 1-299, looked up) Protein phosphatase 1 …: MSRGPSSAVLPSALGSRKLGPRSLSCLSDLDGGVALEPRACRPPGSPGRAPPPTPAPSGCDPRLRPIILRRARSLPSSPERRQKAAGAPGAACRPGCSQKLRVRFADALGLELAQVKVFNAGDDPSVPLHVLSRLAINSDLCCSSQDLEFTLHCLVPDFPPPVEAADFGERLQRQLVCLERVTCSDLGISGTVRVCNVAFEKQVAVRYTFSGWRSTHEAVARWRGPAGPEGTEDVFTFGFPVPPFLLELGSRVHFAVRYQVAGAEYWDNNDHRDYSLTCRNHALHMPRGECEESWIHFI" observable="Difference (log2), PP1 vs untreated" result=-4.778
molecule="EIF4E2 (protein, UniProt O60573 1-245, looked up) Eukaryotic translation …: MNNKFDALKDDDSGDHDQNEENSTQKDGEKEKTERDKNQSSSKRKAVVPGPAEHPLQYNYTFWYSRRTPGRPTSSQSYEQNIKQIGTFASVEQFWRFYSHMVRPGDLTGHSDFHLFKEGIKPMWEDDANKNGGKWIIRLRKGLASRCWENLILAMLGEQFMVGEEICGAVVSVRFQEDIISIWNKTASDQATTARIRDTLRRVLNLPPNTIMEYKTHTDSIKMPGRLGPQRLLFQNLWKPRLNVP" observable="Difference (log2), PP1 vs untreated" result=-4.306
molecule="SRSF7 (protein, UniProt Q16629 1-238, looked up) Serine/arginine-rich splicing …: MSRYGRYGGETKVYVGNLGTGAGKGELERAFSYYGPLRTVWIARNPPGFAFVEFEDPRDAEDAVRGLDGKVICGSRVRVELSTGMPRRSRFDRPPARRPFDPNDRCYECGEKGHYAYDCHRYSRRRRSRSRSRSHSRSRGRRYSRSRSRSRGRRSRSASPRRSRSISLRRSRSASLRRSRSGSIKGSRYFQSPSRSRSRSRSISRPRSSRSKSRSPSPKRSRSPSGSPRRSASPERMD" observable="Difference (log2), PP1 vs untreated" result=-6.84
molecule="HOMER3 (protein, UniProt Q9NSC5 1-361, looked up) Homer protein homolog 3: MSTAREQPIFSTRAHVFQIDPATKRNWIPAGKHALTVSYFYDATRNVYRIISIGGAKAIINSTVTPNMTFTKTSQKFGQWADSRANTVYGLGFASEQHLTQFAEKFQEVKEAARLAREKSQDGGELTSPALGLASHQVPPSPLVSANGPGEEKLFRSQSADAPGPTERERLKKMLSEGSVGEVQWEAEFFALQDSNNKLAGALREANAAAAQWRQQLEAQRAEAERLRQRVAELEAQAASEVTPTGEKEGLGQGQSLEQLEALVQTKDQEIQTLKSQTGGPREALEAAEREETQQKVQDLETRNAELEHQLRAMERSLEEARAERERARAEVGRAAQLLDVSLFELSELREGLARLAEAAP" observable="Difference (log2), PP1 vs untreated" result=-4.512
molecule="RAE1 (protein, UniProt P78406 1-368, looked up) mRNA export factor RAE1: MSLFGTTSGFGTSGTSMFGSATTDNHNPMKDIEVTSSPDDSIGCLSFSPPTLPGNFLIAGSWANDVRCWEVQDSGQTIPKAQQMHTGPVLDVCWSDDGSKVFTASCDKTAKMWDLSSNQAIQIAQHDAPVKTIHWIKAPNYSCVMTGSWDKTLKFWDTRSSNPMMVLQLPERCYCADVIYPMAVVATAERGLIVYQLENQPSEFRRIESPLKHQHRCVAIFKDKQNKPTGFALGSIEGRVAIHYINPPNPAKDNFTFKCHRSNGTNTSAPQDIYAVNGIAFHPVHGTLATVGSDGRFSFWDKDARTKLKTSEQLDQPISACCFNHNGNIFAYASSYDWSKGHEFYNPQKKNYIFLRNAAEELKPRNKK" observable="Difference (log2), PP1 vs untreated" result=-4.214
